# Tested on: UO-31 renal
# procedure.details: NCI-60 one-dose screen, 48 h (100 = growth as untreated, 0 = no growth, -100 = all killed)
# condition.details: 10 µM
# Protocol: Growth inhibition of the UO-31 human tumor cell line is measured as a screen for anti-cancer activity. Cells are grown in 96 well plates and exposed to the test compound for 48 hours. Compounds are tested at a single concentration, which is 10^-5 M for most compounds. The reported endpoint is percent growth (GI% or GIPRCNT), where numbers from 0 - 100% represent growth inhibition, and numbers from -100% - 0 represent cell death. For example, a value of 40 represents 60% growth inhibition. […]
This is part of a sample that, as a whole, favours compounds with a hit. Of some 83,000 tested, about 20% had one in any assay.
recorded.metric: growth (%)
Give bare numbers, in %.

In the examples that follow, each entry is paired with its recorded growth.
Clc1ccc2c(c1)C(N1CCNCC1)=Nc1ccccc1O2    28.3
COc1cc2cc(Oc3ccc(NC(=O)Nc4ccc(Cl)c(Cl)c4)cc3)c(C)nc2cc1OC    3.69
O=C(CCCCNC(=O)c1nc(-c2ccccc2)n(-c2ccccc2)n1)NO    86.4
Cc1ccc(NCCN(C)CC(C)O)c2c(=O)c3ccc(Cl)cc3sc12 (configuration not stated)    51.5
CCn1cc(CNc2ccc(C(=O)Nc3ccc4ccccc4c3)cc2)c(C)n1    47.1

// each listed compound needs a value for growth
1. COc1cc(/C=C2\CCCC3=C2NC(N)=NC3c2cc(OC)c(OC)c(OC)c2)cc(OC)c1OC (configuration not stated)
2. CC(CN(C)C)Oc1ccccc1NC1=C(Cl)C(=O)C(Nc2ccccc2OC(C)CN(C)C)=C(Cl)C1=O (configuration not stated)
3. COc1ccc(NC(=O)C2CC3C=CC2C3)c([N+](=O)[O-])c1 (configuration not stated)
4. O=C(CCNC(=O)c1nc(-c2ccccc2)n(-c2ccc(Cl)cc2)n1)NO
5. CC(C)(C)c1ccc(S(=O)(=O)N[C@H]2CC[C@H]3[C@@H]4CCc5cc(O)ccc5[C@H]4CC[C@]23C)cc1

Marked response:
1: 34.3; 2: -99.9; 3: 92.4; 4: 88.3; 5: 25.1

// each listed compound needs a value for growth
1. CCN(CC)CC(=O)N(CC)c1ccc(C)c(Cl)c1
2. COc1cc(-c2nn(-c3ccc(NC(=O)NCCCNC(=O)c4ccccc4)cc3)cc2-c2ccncc2)ccc1Cl
3. CN1C(=O)C2(Nc3cc(Cl)ccc3S2)c2cc(Cl)ccc21 (configuration not stated)

Marked response:
[90.7, 29.6, 56.9]

// each listed compound needs a value for growth
1. Cc1c2c[n+](C(C)C)ccc2c(C)c2c1[nH]c1ccccc12
2. COc1cc2c(cc1OC)C(C(CCCCCC(CCC(C)C)C1NCCc3cc(OC)c(OC)cc31)CCC(C)C)NCC2 (configuration not stated)
3. COc1ccc(-c2cc(-c3ccccc3)nc(SCCCC(=O)NO)n2)cc1
4. O=C1c2ccccc2-c2c1c1cccnc1c(=O)n2C[C@H](O)CO
5. O=C1CSC(=S)N1/N=C/c1ccc(Cl)s1
6. CCN1C(=O)CC(SC2CC(=O)N(CC)C2=O)C1=O (configuration not stated)
7. CS(=O)(=O)c1nccc(-c2c(-c3cccc(O)c3)nc3sccn23)n1

Marked response:
[72.1, -96.3, -52, 49.9, 79.3, 80.2, 66.5]
